Reported pIC50 by item:
tested_system: CYP2C9 (Homo sapiens, UniProt P11712)
Sequence (P11712 whole entry): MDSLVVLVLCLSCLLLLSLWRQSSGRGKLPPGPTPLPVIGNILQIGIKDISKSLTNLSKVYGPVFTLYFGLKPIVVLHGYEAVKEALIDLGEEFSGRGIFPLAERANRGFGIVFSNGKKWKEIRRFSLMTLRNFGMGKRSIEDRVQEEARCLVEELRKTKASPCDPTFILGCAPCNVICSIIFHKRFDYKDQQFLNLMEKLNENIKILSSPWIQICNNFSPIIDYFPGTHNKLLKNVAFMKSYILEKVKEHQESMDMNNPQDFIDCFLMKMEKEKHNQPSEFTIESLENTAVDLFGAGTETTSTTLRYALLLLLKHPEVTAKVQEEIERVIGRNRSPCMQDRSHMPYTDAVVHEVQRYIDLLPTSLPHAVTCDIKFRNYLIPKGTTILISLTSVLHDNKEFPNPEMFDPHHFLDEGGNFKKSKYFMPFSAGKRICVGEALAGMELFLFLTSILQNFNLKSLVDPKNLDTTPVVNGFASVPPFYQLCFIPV
experimental_protocol: Luminescent P450-Glo recombinant human CYP2C9 inhibition assay
pIC50: −log10 of the molar value.

compound	measure_name	observed_result
CC(C)=C[C@H]1C[C@](C)(O)[C@@H]2[C@H]3CC[C@@H]4[C@@]5(C)CC[C@H](O[C@@H]6O[C@H](CO)[C@@H](O)[C@H](O[C@@H]7O[C@H](CO)[C@@H](O)[C@H](O)[C@H]7O)[C@H]6O[C@@H]6O[C@@H](CO)[C@H](O)[C@H]6O)C(C)(C)[C@@H]5CC[C@@]4(C)[C@@]34CO[C@@]2(C4)O1 [bacoside A3]	pIC50	< 4.00

Reading of pIC50 for CC(C)=C[C@@H]1CO[C@]23C[C@]4(CO2)[C@H](CC[C@@H]2[C@@]5(C)CC[C@H](O[C@@H]6OC[C@H](O)[C@H](O[C@@H]7O[C@H](CO)[C@@H](O)[C@H](O)[C@H]7O)[C@H]6O[C@@H]6O[C@@H](CO)[C@H](O)[C@H]6O)C(C)(C)[C@@H]5CC[C@]24C)[C@H]3[C@@]1(C)O [bacopasaponin C] with CYP2C9 (Homo sapiens, UniProt P11712): < 4.00

###

tested_system: UniProt:P11712
experimental_protocol: Luminescent P450-Glo recombinant human CYP2C9 inhibition assay
pIC50: −log10 of the molar value.
Reported pIC50 by item:

Reference set (2 entries):
compound	measure_name	observed_result
CC(C)=CC1COC23CC4(CO2)C(CCC2C5(C)CCC(OC6OCC(O)C(OC7OC(COS(=O)(=O)O)C(O)C(O)C7O)C6OC6OC(CO)C(O)C6O)C(C)(C)C5CCC24C)C3C1(C)O (stereo not drawn) [bacopaside I]	pIC50	< 4.00
CC(C)=C[C@H]1C[C@](C)(O)[C@@H]2[C@H]3CC[C@@H]4[C@@]5(C)CC[C@H](O[C@@H]6OC[C@H](O)[C@H](O[C@@H]7O[C@H](CO)[C@@H](O)[C@H](O)[C@H]7O)[C@H]6O[C@@H]6O[C@@H](CO)[C@H](O)[C@H]6O)C(C)(C)[C@@H]5CC[C@@]4(C)[C@@]34CO[C@@]2(C4)O1 [bacopaside X]	pIC50	< 4.00

The record that follows has no pIC50 shown yet.
pIC50 in this record for CC(C)=CC1COC23CC4(CO2)C(CCC2C5(C)CCC(OC6OC(CO)C(O)C(OC7OC(CO)C(O)C(O)C7O)C6OC6OC(CO)C(O)C6O)C(C)(C)C5CCC24C)C3C1(C)O (stereo not drawn) [bacopaside II] : < 4.00

###

tested_system: CYP2C19 (Homo sapiens, UniProt P33261)
Sequence (P33261 whole entry): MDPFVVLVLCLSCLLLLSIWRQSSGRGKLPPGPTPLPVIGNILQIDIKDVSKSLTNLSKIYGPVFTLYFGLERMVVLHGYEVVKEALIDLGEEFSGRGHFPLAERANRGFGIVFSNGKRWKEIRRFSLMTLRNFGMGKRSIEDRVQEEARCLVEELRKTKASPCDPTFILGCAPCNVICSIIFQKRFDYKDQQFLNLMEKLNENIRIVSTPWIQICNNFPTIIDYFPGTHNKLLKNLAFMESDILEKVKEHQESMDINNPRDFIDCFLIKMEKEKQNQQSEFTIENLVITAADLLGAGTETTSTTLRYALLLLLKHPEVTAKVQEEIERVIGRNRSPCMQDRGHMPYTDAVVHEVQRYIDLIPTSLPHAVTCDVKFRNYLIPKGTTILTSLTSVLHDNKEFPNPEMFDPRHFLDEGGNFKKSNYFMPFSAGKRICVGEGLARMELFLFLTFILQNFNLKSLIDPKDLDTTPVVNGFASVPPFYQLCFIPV
experimental_protocol: Luminescent P450-Glo recombinant human CYP2C19 inhibition assay
Method: The inhibitory effects of B. monnieri standardized extract and the constituents bacoside A, bacoside A3, bacopaside II, bacopaside X, bacopasaponin C and bacopaside I on human cytochrome P450 enzyme were examined using an in vitro luminescent assay. […] The enzyme assay was performed in 96-well white bottom flat plates (Nunc, Roskilde, Denmark). […] Before reading, the plate was incubated at room temperature for 20 min to stabilize the luminescent signal. […]
measure_name: IC50

Use the examples below as a reference point.
molecule	observed_result
CC(C)=C[C@@H]1CO[C@]23C[C@]4(CO2)[C@H](CC[C@@H]2[C@@]5(C)CC[C@H](O[C@@H]6OC[C@H](O)[C@H](O[C@@H]7O[C@H](CO)[C@@H](O)[C@H](O)[C@H]7O)[C@H]6O[C@@H]6O[C@@H](CO)[C@H](O)[C@H]6O)C(C)(C)[C@@H]5CC[C@]24C)[C@H]3[C@@]1(C)O [bacopasaponin C]	> 100 µM
CC(C)=C[C@H]1C[C@](C)(O)[C@@H]2[C@H]3CC[C@@H]4[C@@]5(C)CC[C@H](O[C@@H]6O[C@H](CO)[C@@H](O)[C@H](O[C@@H]7O[C@H](CO)[C@@H](O)[C@H](O)[C@H]7O)[C@H]6O[C@@H]6O[C@@H](CO)[C@H](O)[C@H]6O)C(C)(C)[C@@H]5CC[C@@]4(C)[C@@]34CO[C@@]2(C4)O1 [bacoside A3]	> 100 µM
CC(C)=CC1COC23CC4(CO2)C(CCC2C5(C)CCC(OC6OC(CO)C(O)C(OC7OC(CO)C(O)C(O)C7O)C6OC6OC(CO)C(O)C6O)C(C)(C)C5CCC24C)C3C1(C)O (centres unmarked) [bacopaside II]	> 100 µM
CC(C)=C[C@H]1C[C@](C)(O)[C@@H]2[C@H]3CC[C@@H]4[C@@]5(C)CC[C@H](O[C@@H]6OC[C@H](O)[C@H](O[C@@H]7O[C@H](CO)[C@@H](O)[C@H](O)[C@H]7O)[C@H]6O[C@@H]6O[C@@H](CO)[C@H](O)[C@H]6O)C(C)(C)[C@@H]5CC[C@@]4(C)[C@@]34CO[C@@]2(C4)O1 [bacopaside X]	> 100 µM

The reported value for CC(C)=CC1COC23CC4(CO2)C(CCC2C5(C)CCC(OC6OCC(O)C(OC7OC(COS(=O)(=O)O)C(O)C(O)C7O)C6OC6OC(CO)C(O)C6O)C(C)(C)C5CCC24C)C3C1(C)O (centres unmarked) [bacopaside I] in terms of IC50 is > 100 µM
